- TESTED TARGET: recombinant human GST-PRMT4 (Homo sapiens)
- Sequence (Q86X55 whole entry): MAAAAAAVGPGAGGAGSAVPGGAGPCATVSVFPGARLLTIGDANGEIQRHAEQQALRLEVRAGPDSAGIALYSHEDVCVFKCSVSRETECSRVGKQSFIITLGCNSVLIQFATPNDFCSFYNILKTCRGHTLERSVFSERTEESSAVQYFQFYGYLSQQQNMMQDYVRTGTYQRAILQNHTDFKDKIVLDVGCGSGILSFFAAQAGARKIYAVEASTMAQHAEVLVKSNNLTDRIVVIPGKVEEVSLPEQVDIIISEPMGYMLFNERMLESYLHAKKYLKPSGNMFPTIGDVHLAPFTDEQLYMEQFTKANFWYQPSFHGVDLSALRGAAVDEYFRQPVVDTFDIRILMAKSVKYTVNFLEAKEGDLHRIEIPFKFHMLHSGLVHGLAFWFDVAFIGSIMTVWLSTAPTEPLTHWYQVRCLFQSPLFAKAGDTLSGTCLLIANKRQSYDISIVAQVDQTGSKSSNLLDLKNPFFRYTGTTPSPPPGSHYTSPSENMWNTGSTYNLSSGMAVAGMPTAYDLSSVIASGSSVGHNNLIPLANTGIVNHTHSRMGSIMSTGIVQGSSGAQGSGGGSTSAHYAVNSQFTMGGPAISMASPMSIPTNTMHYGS
- ASSAY REMARKS: In vitro methylation of histone 3 by recombinant GST-PRMT4
- EXPERIMENTAL SETUP: read-out: PRMT4 IC50; recombinant human GST-PRMT4, histone 3 as substrate
OBSERVATION TYPE: IC50

Entry "O=C(Nc1ccc2c(O)cc(S(=O)(=O)O)cc2c1)Nc1ccc2c(O)cc(S(=O)(=O)O)cc2c1" ; IC50 = 170 µM

---

- ASSAY REMARKS: Viability of T helper cells
- Format: cell-based
- EXPERIMENTAL SETUP: Balb/c, mouse, primary T helper cells
OBSERVATION TYPE: viability at 100 µM (%)
One number for each entry, in %.

Lookup result for CSC[C@H]1O[C@@H](n2cnc3c(N)ncnc32)[C@H](O)[C@@H]1O [MTA, methylthioadenosine] ; measured viability at 100 µM: 90.9
